Target: T1, Human CD19-his protein (human, UniProt P15391 20-291)
T1 construct: bought protein; also called human CD19 protein; recombinant human CD19-His; not shown: His tag
T1 sequence (looked up): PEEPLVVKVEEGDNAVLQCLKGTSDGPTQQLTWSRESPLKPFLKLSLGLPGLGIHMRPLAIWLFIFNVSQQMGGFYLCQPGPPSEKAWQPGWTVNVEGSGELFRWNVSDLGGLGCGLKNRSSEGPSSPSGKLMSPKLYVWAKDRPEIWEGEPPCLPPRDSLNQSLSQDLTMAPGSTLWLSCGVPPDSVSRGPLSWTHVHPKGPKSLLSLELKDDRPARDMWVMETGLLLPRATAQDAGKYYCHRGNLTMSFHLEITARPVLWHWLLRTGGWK
Test: ELISA, antibody at 0.10 nM
The label is Satisfied for OD450 below 0.3 and Not satisfied for OD450 equal to or exceeding 0.3.

The following binders have reported results that may help.
binder | discreteLabel
F4.78.1 (antibody, human IgG1, V domains shown, human-murine chimeric antibody, human IgG1) VH: QVQIQQSGAELARPGASVKLSCKASGYTFTNYWMQWIKQRPGQGLEWIGAIYPGDGDTRYTQKFKGKATLTADKSSSTAYMQLSSLASEDSAVYYCAREEVWSPYGMDYWGQGTSVTVSS VL: QIVLTQSPAIMSASPGEKVTITCSASSSVSYMGWFQQKPGTSPKLWIYSTSNLASGVPARFSGSGSGTSYSLTISRMEAEDAATYYCQQRSIYPLTFGAGTKLELK | Not satisfied
F4.152.7 (antibody, human IgG1, V domains shown, human-murine chimeric antibody, human IgG1) VH: QVQLQQPGAELVKPGASVKLSCKASGYTFTSYWMHWVKQRPGQGLEWIGEIDPSDSYTNYNQKFKGKATLTADKSSSTAYMQLSGLTSEDSAVYHCARGGDYDGYYVMDYWGQGTSVTVSS VL: EIVLTQSPTTMAASPGEKITITCSASSSISSNYLHWYQQKPGFSPKLLIYRTSNLASGVPARFSGSGSGTSYSLTIGTMEADDVATYYCQQGSYIPRIFTFGSGTKLEIK | Not satisfied

Below 0.3 on OD450? Entry F3.23.10 (antibody, human IgG1, V domains shown, human-murine chimeric antibody, human IgG1) VH: EFQLQQSGPELVKPGASVKISCKASDYSFTDYNMNWVKQSNGASLEWIGIINPNFGSTSYNQKFKGKATLTVDQSSSTAFMQLNSLTSEDSAVYYCARSEYYGSSGFAYWGQGTLVTVSA VL: DVVVTQTPLSLPVSFGDQVSISCRSSQSLVNSYGNTYLSWYLHKPGQSPQLLIYGISNRFSGVPDRFSGSGSGTDFTLKITTIKPEDLGMYYCLQGTHQPWTFGGGTKLEIK Not satisfied

Could you please tell me whether OD450 recorded for F4.180.1 (antibody, human IgG1, V domains shown, human-murine chimeric antibody, human IgG1) VH: EVQLQQSAPELVKPGASVKMSCKTSGYTFTENIIHWVKQTHGKSLEWIGGINPDNGGTSYHQKFKGRTTLTIDKSSSTAYMELRSLTSDDSAVFFCARQAPLYWYFDIWGAGTTVTVSS VL: DIVLTQSPASLAVSLGQRATISCRASESVDSYGNSLMHWFQQKPGQPPRLLIYRASNLESGIPARFSGSGSRTDFTLTITPVEADDVATYYCQQSNEDPWTFGGGTKLEIK is less than 0.3? Not satisfied

Please check: OD450 for F4.49.11 (antibody, human IgG1, V domains shown, human-murine chimeric antibody, human IgG1) VH: DVQLRASGPGLVKPSQSLSLTCSVTGYSITSGYYWNWIRQFPGNKLEWMGCISYDGTNNYNPSLKNRISFTRDTSKNQFFLNLNSVTTEDSATYYCARRVYYRYDGVVDYWGQGTSVTVSS VL: ENVLTQSPAIMSASPGEKVTMTCSASSSVSYIHWYQQKSSTAPKLWIYDTSKLASGVPGRFSGSRSRNSYSLTISSMEAEDVATYYCFQGSGYPLTFGSGTKLEIK , strictly under 0.3 or not? Satisfied

Is OD450 strictly under 0.3 for the entry F2.15.26 (antibody, human IgG1, V domains shown, human-murine chimeric antibody, human IgG1) VH: QVQLKESGPGLVAPSQSLSITCTVSGFSLTDYGVSWIRQSPGKGLEWLGVIWGSGDTYYNSVLESRLSINKDNSKNQVFLKMNSLQTDDAAMYFCAKHSYYGGSFAMDYWGQGTSVTVSS VL: DIQMTQTTSSLSASLGDRVTISCRASQDISNYLNWYQQKPDGTVKLLIYYTSRLHSGVPSRFSGSGSGTDYSLTISNLEQEDIATYFCQQGKTLPWTFGGGTKLEIK ? Not satisfied

Here's an entry: F3.126.15 (antibody, human IgG1, V domains shown, human-murine chimeric antibody, human IgG1) VH: QVQLQQPGAELVMPGASVKLSCKASGYTFTSYWMHWVKQRPGQGLEWIGEIDPSDSYTTYNQNFKGKATLTVDISTSTAYIQLSNLTSEDSAVYYCARLTGNYIHYWGQGTTLTVSS VL: DIVMTQSHKFMSTSVGDRVSITCKASQDVSPAVAWYQQRPGQCPKLLIFSSSYRSTGVPDRFTGSGSGTDFTFTISSVQAEDLAVYYCQQHYSLPLTFGAGTKLELK . Is its OD450 below 0.3? Satisfied

OD450 strictly < 0.3 for this binder? F3.83.9 (antibody, human IgG1, V domains shown, human-murine chimeric antibody, human IgG1) VH: DVQLQESGPGLVKPSQSLSLTCSVTGYSITSGYYWNWIRQFPGNKLEWMGYISYDGGNNYNPSLKNRISITRDTSKNQFFLKLNSVTTEDTATYFCAREDYSNWYFDVWGTGTTVTVSS VL: DIVLTQSPASLAVSLGQRATISCRASQSVSKSSYSYMHWYQQKPGQSPKLLIKYASILKSGVPARFSGSGSGTDFTLNIHPVEEEDTATYYCQHSWEIPWTFGGGTKLEIK Satisfied

Hello, I'm reviewing records and need to know if OD450 of F4.96.6 (antibody, human IgG1, V domains shown, human-murine chimeric antibody, human IgG1) VH: EIQLQQSGPELVKPGASVKVSCKASGYAFSAYNIYWVKQSHGKSLEWIGYIDPYNSGTTYNQKFRGKATLTVDKSSNTAYMHLSSLTSEDSAVYYCTRDGDAMDYWGQGTSVTVSS VL: EILLTQSPAIIAASPGEKVTITCSASSGVIYMNWYQQKPGSSPKIWIYDVSTLASGVPARFSGSGSGTSFSFTINSMEAEDVATYYCQQRSSYPYTFGGGTKLEIK is below 0.3. Could you check? Satisfied

Could you please tell me whether OD450 recorded for F4.18.13 (antibody, human IgG1, V domains shown, human-murine chimeric antibody, human IgG1) VH: QVQLQQSGPELVKPGASVKISCKASGYAFSSFWMNWVKQRPGEGLEWIGRIYPGDGDTNYNGKFKGKATLTADDSSSTAYMQLSSLTSVDSAVYFCAREVIAAVVTTDFDYWGQGTTLTVSS VL: DIQMTQTTSSLSASLGDRVTISCRTSQDISNYLNWYLQKPDGTVKLLIYYTSGLHSGVPSRFSGSGSGTDYSLTISNLEPEDIATYFCQQGKTLPYTFGGGTKLEIK is less than 0.3? Not satisfied
